Here, each record is paired with measured log10 MIC data.
tested on: Bordetella pertussis; assay: Antibacterial activity against […] Bordetella pertussis BP58 by Etest method; assay type: functional
Remember, log10 of MIC, in µg/mL.

Known log10 MIC results, listed for orientation:
C[C@@H]1CN(c2c(F)c(N)c3c(=O)c(C(=O)O)cn(C4CC4)c3c2F)C[C@H](C)N1 : -0.90
CCn1cc(C(=O)O)c(=O)c2cc(F)c(N3CCNCC3)cc21 : 0.00
O=C(O)c1cn(C2CC2)c2cc(N3CCNCC3)c(F)cc2c1=O : -0.90

For COc1c(N2CCNC(C)C2)c(F)cc2c(=O)c(C(=O)O)cn(C3CC3)c12 (configuration not stated) , what is its reported log10 MIC?
-1.49

For `C[C@H]1COc2c(N3CCN(C)CC3)c(F)cc3c(=O)c(C(=O)O)cn1c23.C[C@H]1COc2c(N3CCN(C)CC3)c(F)cc3c(=O)c(C(=O)O)cn1c23.O` , what is its reported log10 MIC?
-1.19

For `O=C(N[C@H](CO)[C@H](O)c1ccc([N+](=O)[O-])cc1)C(Cl)Cl` , what is its reported log10 MIC?
-0.30

###

system: Bordetella pertussis; test: Antibacterial activity against quinolone-susceptible Bordetella pertussis BP109 by Etest method; type: functional
Assay Readout: MIC (ng/mL)
# output: bare number, implied unit ng/mL

Known MIC results, listed for orientation:
CCn1cc(C(=O)O)c(=O)c2cc(F)c(N3CCNCC3)cc21 : 64
CCn1cc(C(=O)O)c(=O)c2ccc(C)nc21 : 2000
O=C(O)c1cn(C2CC2)c2cc(N3CCNCC3)c(F)cc2c1=O : 8

For `C[C@H]1COc2c(N3CCN(C)CC3)c(F)cc3c(=O)c(C(=O)O)cn1c23.C[C@H]1COc2c(N3CCN(C)CC3)c(F)cc3c(=O)c(C(=O)O)cn1c23.O` , what is its reported MIC?
4

For `O=C(N[C@H](CO)[C@H](O)c1ccc([N+](=O)[O-])cc1)C(Cl)Cl` , what is its reported MIC?
125

For COc1c(N2CCNC(C)C2)c(F)cc2c(=O)c(C(=O)O)cn(C3CC3)c12 (configuration not stated) , what is its reported MIC?
4

For `C[C@@H]1CN(c2c(F)c(N)c3c(=O)c(C(=O)O)cn(C4CC4)c3c2F)C[C@H](C)N1` , what is its reported MIC?
4

###

Here, each record is paired with measured MIC data.
test system: Bordetella pertussis; assay: Antibacterial activity against […] Bordetella pertussis BP121 by Etest method; format: functional
# output: bare number, implied unit µg/mL

C[C@@H]1CN(c2c(F)c(N)c3c(=O)c(C(=O)O)cn(C4CC4)c3c2F)C[C@H](C)N1 : 0.064

// switching to the query compound
Request body: readout MIC, system Bordetella pertussis, query `CCn1cc(C(=O)O)c(=O)c2cc(F)c(N3CCNCC3)cc21` . Return the value.
1
